Below, each entry is listed alongside its reported pEC50.
- Test System: Dual specificity tyrosine-phosphorylation-regulated kinase 1A (Homo sapiens)
- Method Description: Inhibition of human DYRK1A transfected in HEK293T cells co-transfected with Renilla plasmid, pGL3-NFAT and NFATc1 assessed as derepression of NFAT-dependent luciferase activity measured after 48 hrs by luciferase assay
pEC50: −log10 of the molar value.
Reported Property: pEC50

CCOC(=O)c1cnc2ccc(-c3cc(Cl)c(O)c(Cl)c3)nc2c1N[C@H]1CC[C@H](C(=O)N2CCOCC2)CC1	7.01
CCOC(=O)c1cnc2ccc(-c3ccnc(N)c3)nc2c1N[C@H]1CC[C@H](CN2CCOCC2)CC1	7.43
CN(C)C[C@H]1CC[C@H](Nc2c(C(=O)N3CCOCC3)cnc3ccc(-c4cc(Cl)c(O)c(Cl)c4)nc23)CC1	6.19

---

- Test System: AURKB (Aurora kinase B) (Homo sapiens, UniProt Q96GD4)
- Sequence (Q96GD4 whole entry): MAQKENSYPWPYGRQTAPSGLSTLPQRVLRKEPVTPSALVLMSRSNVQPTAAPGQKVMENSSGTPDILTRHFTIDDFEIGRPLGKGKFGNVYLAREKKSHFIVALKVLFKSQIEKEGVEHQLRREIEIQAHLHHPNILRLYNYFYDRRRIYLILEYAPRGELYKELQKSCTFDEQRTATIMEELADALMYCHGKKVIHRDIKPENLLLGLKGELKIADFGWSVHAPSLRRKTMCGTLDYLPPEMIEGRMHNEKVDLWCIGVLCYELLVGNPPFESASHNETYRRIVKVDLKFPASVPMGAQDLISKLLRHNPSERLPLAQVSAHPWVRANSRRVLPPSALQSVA
- Method Description: Inhibition of AURKB in human HEK293T cells assessed as reduction in cell viability at 40 nM measured after 48 hrs relative to control
- Assay type: cell-based, HEK-293T
Reported Property: inhibition at 48 h, 0.04 µM (%)

O=C(O)c1ccc(Nc2ncc3c(n2)-c2ccc(Cl)cc2C(c2c(F)cccc2F)=NC3)cc1	22
CCN(CCO)CCCOc1ccc2c(Nc3cc(CC(=O)Nc4cccc(F)c4)[nH]n3)ncnc2c1	41

---

- Test System: AURKB (Aurora kinase B) (Homo sapiens, UniProt Q96GD4)
- Method Description: Inhibition of AURKB in human HEK293T cells assessed as reduction in cell viability at 270 nM measured after 48 hrs in presence of 3 uM MK-5108 relative to control
- Type: cell-based, HEK-293T
Reported Property: inhibition at 48 h, 0.27 µM (%)

CCOC(=O)c1cnc2ccc(-c3ccncc3)nc2c1N[C@H]1CC[C@H](CN(C)C)CC1	34

---

Some compounds, each annotated with its measured CC50.
- Method Description: Cytotoxicity against human HEK293T cells transfected with DYRK1A co-tranfected with Renilla plasmid, pGL3-NFAT and NFATc1 assessed as reduction in luciferase activity by measuring cell number
- Type: cell-based, HEK-293T
Reported Property: CC50

CCOC(=O)c1cnc2ccc(-c3cc(Cl)c(O)c(Cl)c3)nc2c1N[C@H]1CC[C@H](C(N)=O)CC1	> 10000 nM
CCOC(=O)c1cnc2ccc(-c3cc(Cl)c(O)c(Cl)c3)nc2c1N1CCC(C)CC1	> 10000 nM
CC(C)CCNC(=O)c1cnc2ccc(-c3cc(Cl)c(O)c(Cl)c3)nc2c1N[C@H]1CC[C@H](CN(C)C)CC1	21 nM
CCOC(=O)c1cnc2ccc(-c3ccc(C(=O)O)cc3)nc2c1N[C@H]1CC[C@H](CN(C)C)CC1	> 10000 nM
CCOC(=O)c1cnc2ccc(-c3cc(Cl)c(O)c(Cl)c3)nc2c1Nc1ccc(CN(C)C)cc1	3790 nM
CN(C)C[C@H]1CC[C@H](Nc2c(C(N)=O)cnc3ccc(-c4cc(Cl)c(O)c(Cl)c4)nc23)CC1	69 nM
CCCCNC(=O)c1cnc2ccc(-c3cc(Cl)c(O)c(Cl)c3)nc2c1N[C@H]1CC[C@H](CN2CCOCC2)CC1	79 nM
CCOC(=O)c1cnc2ccc(-c3ccc(C(N)=O)cc3)nc2c1N[C@H]1CC[C@H](CN(C)C)CC1	> 10000 nM
CCOC(=O)c1cnc2ccc(-c3cc(Cl)c(O)c(Cl)c3)nc2c1N[C@H]1CC[C@H](CO)CC1	2670 nM
CCOC(=O)c1cnc2ccc(-c3cc(Cl)c(O)c(Cl)c3)nc2c1N1CCNCC1	10000 nM
CC(C)CNC(=O)c1cnc2ccc(-c3cc(Cl)c(O)c(Cl)c3)nc2c1N[C@H]1CC[C@H](CN(C)C)CC1	16 nM
CCOC(=O)c1cnc2ccc(-c3cc(Cl)c(O)c(Cl)c3)nc2c1N[C@H]1CC[C@H](C)CC1	> 10000 nM
CCOC(=O)c1cnc2ccc(-c3ccnc(C)c3)nc2c1N[C@H]1CC[C@H](CN(C)C)CC1	> 10000 nM
CCOC(=O)c1cnc2ccc(-c3cc(Cl)c(O)c(Cl)c3)nc2c1N[C@H]1CC[C@H](CN2CCOCC2)CC1	491 nM
CCOC(=O)c1cnc2ccc(-c3ccnc(N)c3)nc2c1N[C@H]1CC[C@H](CN(C)C)CC1	1130 nM
CCOC(=O)c1cnc2ccc(-c3ccnc(N)c3)nc2c1N[C@H]1CC[C@H](CN2CCCC2)CC1	756 nM
NC(=O)C[C@H]1CC[C@H](Nc2c(CO)cnc3ccc(-c4cc(Cl)c(O)c(Cl)c4)nc23)CC1	1970 nM
CCOC(=O)c1cnc2ccc(-c3ccnc(N)c3)nc2c1N[C@H]1CC[C@H](CN2CCOCC2)CC1	2960 nM
CCCNC(=O)c1cnc2ccc(-c3cc(Cl)c(O)c(Cl)c3)nc2c1N[C@H]1CC[C@H](CN(C)C)CC1	38 nM
CCOC(=O)c1cnc2ccc(-c3cc(Cl)c(O)c(Cl)c3)nc2c1N[C@H]1CC[C@H](N)CC1	44 nM
CCOC(=O)c1cnc2ccc(-c3cc(Cl)c(O)c(Cl)c3)nc2c1N1CCCCC1	3460 nM
CC(=O)c1cnc2ccc(-c3cc(Cl)c(O)c(Cl)c3)nc2c1N[C@H]1CC[C@H](C(N)=O)CC1	1660 nM
CCOC(=O)c1cnc2ccc(-c3cc(Cl)cc(Cl)c3)nc2c1N[C@H]1CC[C@H](CN(C)C)CC1	> 10000 nM
CCCCNC(=O)c1cnc2ccc(-c3cc(Cl)c(O)c(Cl)c3)nc2c1N[C@H]1CC[C@H](C(=O)N2CCOCC2)CC1	2120 nM
CCOC(=O)c1cnc2ccc(-c3ccc(N)cc3)nc2c1N[C@H]1CC[C@H](CN(C)C)CC1	> 10000 nM
CCOC(=O)c1cnc2ccc(-c3ccnc(N)c3)nc2c1N[C@H]1CC[C@H](CN2CCCCC2)CC1	1350 nM
CCOC(=O)c1cnc2ccc(-c3cc(Cl)c(O)c(Cl)c3)nc2c1N[C@H]1CC[C@H](CC(N)=O)CC1	1890 nM
CCOC(=O)c1cnc2ccc(-c3cc(C)nc(C)c3)nc2c1N[C@H]1CC[C@H](CN(C)C)CC1	> 10000 nM
CNC(=O)c1cnc2ccc(-c3cc(Cl)c(O)c(Cl)c3)nc2c1N[C@H]1CC[C@H](CN(C)C)CC1	36 nM
CCCCCNC(=O)c1cnc2ccc(-c3cc(Cl)c(O)c(Cl)c3)nc2c1N[C@H]1CC[C@H](CN(C)C)CC1	19 nM
CCNC(=O)c1cnc2ccc(-c3cc(Cl)c(O)c(Cl)c3)nc2c1N[C@H]1CC[C@H](CN(C)C)CC1	39 nM
CCOC(=O)c1cnc2ccc(-c3cc(Cl)c(O)c(Cl)c3)nc2c1N[C@H]1CC[C@H](C(=O)N2CCOCC2)CC1	3010 nM
CCOC(=O)c1cnc2ccc(-c3ccnc(O)c3)nc2c1N[C@H]1CC[C@H](CN(C)C)CC1	2360 nM
CCOC(=O)c1cnc2ccc(-c3ccc(O)nc3)nc2c1N[C@H]1CC[C@H](CN(C)C)CC1	> 10000 nM
CCOC(=O)c1cnc2ccc(-c3cc(Cl)c(O)c(Cl)c3)nc2c1N1CCOCC1	3680 nM
NC(=O)[C@H]1CC[C@H](Nc2c(CO)cnc3ccc(-c4cc(Cl)c(O)c(Cl)c4)nc23)CC1	> 10000 nM
